Numbers sourced from the supplement of paper PMC3334620.

# assay_system: Msn1 (UniProt P22148)
# Sequence: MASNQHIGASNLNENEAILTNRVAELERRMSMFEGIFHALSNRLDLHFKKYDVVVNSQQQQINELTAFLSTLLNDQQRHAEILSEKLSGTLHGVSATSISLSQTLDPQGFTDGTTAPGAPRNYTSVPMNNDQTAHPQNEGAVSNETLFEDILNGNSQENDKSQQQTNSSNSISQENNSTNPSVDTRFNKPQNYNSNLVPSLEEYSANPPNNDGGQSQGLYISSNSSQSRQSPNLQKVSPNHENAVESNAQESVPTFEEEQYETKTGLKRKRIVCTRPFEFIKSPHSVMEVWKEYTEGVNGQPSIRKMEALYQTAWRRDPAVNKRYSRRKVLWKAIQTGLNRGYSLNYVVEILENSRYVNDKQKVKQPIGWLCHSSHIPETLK
# assay_method_text: PBM E-score (8-mer binding enrichment) (E-score (-0.5 to 0.5)); higher = stronger / more preferred TF binding
# condition: protein concentration: 200 nM; construct: GST-full length
Over roughly 33,000 sequences, “E-score (-0.5 to 0.5)” has its median near -0.013; the highest 2% begin near 0.3. The sample as a whole holds a higher share of the highest values than the screen did.
Everything with PBM E-score lower than -0.08 is false; everything else, including exactly -0.08, is true.

Before answering, review these 5 worked examples.
AGTAAAAC : true
CGTGGACA : true
GGCAGCGA : false
GAACCGCA : true
AGCTCACA : false

Inquiry: Assess whether reported PBM E-score for "GGGTTAGA" sits at -0.08 or higher.
Reply text: false

Inquiry: Assess whether reported PBM E-score for "CGAGACAC" sits at -0.08 or higher.
Reply text: true

---

# assay_system: Msn1 (UniProt P22148)
# Sequence: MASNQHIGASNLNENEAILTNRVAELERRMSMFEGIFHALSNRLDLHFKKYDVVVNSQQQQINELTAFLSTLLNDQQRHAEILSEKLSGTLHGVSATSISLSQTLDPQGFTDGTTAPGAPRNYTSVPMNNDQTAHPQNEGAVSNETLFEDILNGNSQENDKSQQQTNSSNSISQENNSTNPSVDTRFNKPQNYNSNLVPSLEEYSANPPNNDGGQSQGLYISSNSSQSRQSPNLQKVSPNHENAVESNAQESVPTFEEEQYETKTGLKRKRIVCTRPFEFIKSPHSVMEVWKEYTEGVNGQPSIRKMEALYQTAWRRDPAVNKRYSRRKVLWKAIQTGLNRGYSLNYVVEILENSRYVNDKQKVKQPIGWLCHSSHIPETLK
# assay_method_text: PBM E-score (8-mer binding enrichment) (E-score (-0.5 to 0.5)); higher = stronger / more preferred TF binding
# condition: protein concentration: 200 nM; construct: GST-full length
Over roughly 33,000 sequences, “E-score (-0.5 to 0.5)” has its median near -0.013; the highest 2% begin near 0.3. This excerpt belongs to a sample that is enriched for the highest values.
Each entry below carries its reported PBM E-score.
Output spec: single numeric token, no unit.

TACGGGGA : -0.11
AAGTCGCT : -0.0636
GGACTCAC : -0.116
CTGTCCTC : 0.197
GTGGGATA : -0.0948
CACAGGAA : 0.0261

Inquiry: Requested field: PBM E-score. Item: "ACCTTCCA"
Reply text: -0.119

Inquiry: Requested field: PBM E-score. Item: "AAGGACGC"
Reply text: 0.167

Inquiry: Requested field: PBM E-score. Item: "CGAAGATC"
Reply text: -0.0505

Inquiry: Requested field: PBM E-score. Item: "GCATATTA"
Reply text: 0.0109

Inquiry: Requested field: PBM E-score. Item: "GACAAGAA"
Reply text: 0.374

Inquiry: Requested field: PBM E-score. Item: "AGGAGACG"
Reply text: -0.298

Inquiry: Requested field: PBM E-score. Item: "ATGTCCTC"
Reply text: 0.481

Inquiry: Requested field: PBM E-score. Item: "CAACCATG"
Reply text: 0.0589

Inquiry: Requested field: PBM E-score. Item: "CGGGCAGC"
Reply text: -0.122

Inquiry: Requested field: PBM E-score. Item: "AGCGAACG"
Reply text: -0.274

Inquiry: Requested field: PBM E-score. Item: "CTCACCCA"
Reply text: -0.0776

Inquiry: Requested field: PBM E-score. Item: "AAGGACAC"
Reply text: 0.449

Inquiry: Requested field: PBM E-score. Item: "AGCCCTCG"
Reply text: -0.123

Inquiry: Requested field: PBM E-score. Item: "CTGGGACC"
Reply text: -0.269

Inquiry: Requested field: PBM E-score. Item: "CCACATAC"
Reply text: 0.0664

Inquiry: Requested field: PBM E-score. Item: "CTGGGAAA"
Reply text: -0.203

---

# assay_system: Msn1 (UniProt P22148)
# Sequence: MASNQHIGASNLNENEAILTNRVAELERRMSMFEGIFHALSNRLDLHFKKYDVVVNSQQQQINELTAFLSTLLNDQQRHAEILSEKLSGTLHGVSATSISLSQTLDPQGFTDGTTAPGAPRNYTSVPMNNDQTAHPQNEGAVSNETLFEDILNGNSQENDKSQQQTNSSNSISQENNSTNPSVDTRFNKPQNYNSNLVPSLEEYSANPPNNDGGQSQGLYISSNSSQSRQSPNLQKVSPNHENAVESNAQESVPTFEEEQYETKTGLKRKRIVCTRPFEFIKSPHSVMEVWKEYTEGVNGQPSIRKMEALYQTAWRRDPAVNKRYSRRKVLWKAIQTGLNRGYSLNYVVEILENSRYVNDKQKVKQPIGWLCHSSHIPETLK
# assay_method_text: PBM E-score (8-mer binding enrichment) (E-score (-0.5 to 0.5)); higher = stronger / more preferred TF binding
# condition: protein concentration: 200 nM; construct: GST-full length
Whole data set: some 33,000 sequences, median “E-score (-0.5 to 0.5)” near -0.013, cut for the highest 2% near 0.3. This is one part of a sample in which the highest values are shown more often than they occur.
experimental_endpoint: PBM E-score
Output spec: single numeric token, no unit.

TACATAAA : 0.15
ACAAACGC : 0.172
ACAAACAC : 0.337
GACATAAA : 0.44
ATTAAAAA : 0.327

Inquiry: Requested field: PBM E-score. Item: "ACAAACGA"
Reply text: 0.331

Inquiry: Requested field: PBM E-score. Item: "TGATGACA"
Reply text: 0.299

Inquiry: Requested field: PBM E-score. Item: "CACATAAC"
Reply text: 0.0195

Inquiry: Requested field: PBM E-score. Item: "GCGGCTCC"
Reply text: -0.285

Inquiry: Requested field: PBM E-score. Item: "AGTAACGC"
Reply text: -0.119

Inquiry: Requested field: PBM E-score. Item: "GACATAAC"
Reply text: 0.396

Inquiry: Requested field: PBM E-score. Item: "AAACCTTC"
Reply text: -0.288

---

# assay_system: Msn1 (UniProt P22148)
# Sequence: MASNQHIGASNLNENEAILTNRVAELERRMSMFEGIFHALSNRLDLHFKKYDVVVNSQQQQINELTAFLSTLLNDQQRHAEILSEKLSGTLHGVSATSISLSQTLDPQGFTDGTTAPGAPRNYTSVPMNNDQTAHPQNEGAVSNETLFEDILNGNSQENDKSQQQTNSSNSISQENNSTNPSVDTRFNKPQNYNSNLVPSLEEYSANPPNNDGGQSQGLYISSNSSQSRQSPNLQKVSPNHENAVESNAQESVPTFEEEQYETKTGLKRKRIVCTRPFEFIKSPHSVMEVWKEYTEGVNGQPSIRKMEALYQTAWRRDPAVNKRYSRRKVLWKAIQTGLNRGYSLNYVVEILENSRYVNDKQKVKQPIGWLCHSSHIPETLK
# assay_method_text: PBM E-score (8-mer binding enrichment) (E-score (-0.5 to 0.5)); higher = stronger / more preferred TF binding
# condition: protein concentration: 200 nM; construct: GST-full length
Whole data set: some 33,000 sequences, median “E-score (-0.5 to 0.5)” near -0.013, cut for the highest 2% near 0.3. The entries come from a sample that favours the highest values as a whole.
Using PBM E-score as the sorting value, the categories are band A = under -0.06, band B = from -0.06 up to 0.2, band C = 0.2 and over

Inquiry: Class for "CAAGATGG" ?
Reply text: band A

Inquiry: Class for "ACGTCTGG" ?
Reply text: band B

Inquiry: Class for "CATATGCC" ?
Reply text: band B

Inquiry: Class for "CTGTCTTA" ?
Reply text: band B

Inquiry: Class for "ATAGACTA" ?
Reply text: band B

Inquiry: Class for "AGGGGACG" ?
Reply text: band A

Inquiry: Class for "AGGGGACT" ?
Reply text: band A
